Reference for the values: PubChem BioAssay (NCI)

- assay.details: NCI Yeast Anticancer Drug Screen. Data for the sgs1 mgt1 strain (AID 161);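 further: 0% = growth of cultures given vehicle only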
- measurement.setup: S. cerevisiae sgs1 mgt1 strain, at 50.0 µM, active compounds read high
The panel holds about 79,000 compounds, 15% with a hit somewhere; the sample as a whole holds those more often.
test.readout: growth inhibition (%)
// note: answer is a bare numeric in %

Asked: Suppose we examine the compound COC1CCC2(C)C3CCC4C(=CCC5C(C)(C)C(=O)CCC45C)CC3(C)CCC2C1(C)C (stereo unspecified) ; what growth inhibition value has been reported?
Given back: -8.55

Asked: Suppose we examine the compound N#CC1C(=O)NC(=S)NC1c1ccc(Cl)c(Cl)c1 (stereo unspecified) ; what growth inhibition value has been reported?
Given back: -25.9

Asked: Suppose we examine the compound COc1cccc2c1C(=N)c1c(O)c3c(c(O)c1C2=O)C[C@@](O)(C(=O)CO)C[C@@H]3OC1CC(N)C(O)C(C)O1 (stereo partly specified) ; what growth inhibition value has been reported?
Given back: -8.7

Asked: Suppose we examine the compound `Cc1nc2nncn2c(=O)[nH]1` ; what growth inhibition value has been reported?
Given back: 31.8

Asked: Suppose we examine the compound `CSc1n[n+](-c2ccccc2)cs1` ; what growth inhibition value has been reported?
Given back: 4.4

Asked: Suppose we examine the compound `O=C(CCc1nnc2s/c(=C\c3ccccc3)c(=O)n12)Nc1cc(Cl)ccc1Cl` ; what growth inhibition value has been reported?
Given back: -18.4

* * *

- assay.details: NCI Yeast Anticancer Drug Screen. Data for the cln2 rad14 strain (AID 165);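 further: 0% = growth equal to vehicle treated cultures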
- measurement.setup: S. cerevisiae cln2 rad14 strain, at 50.0 µM, active compounds read high
About 79,000 compounds went through this panel and 15% of them were active in at least one assay; those are over-represented in the sample as a whole.
Please provide measured growth inhibition for the entries that follow.
// note: answer is a bare numeric in %

Asked: Suppose we examine the compound `Cc1nc(N)nc(C)c1Cl` ; what growth inhibition value has been reported?
Given back: 5.2

Asked: Suppose we examine the compound `O=C(CCC/C(CC(=O)c1ccc(Cl)cc1)=N\NC(=O)c1cc2ccccc2cc1O)Nc1cccc([N+](=O)[O-])c1` ; what growth inhibition value has been reported?
Given back: 25.6

Asked: Suppose we examine the compound `CCCCCCCCCCCCCCS(=O)(=O)CCCl` ; what growth inhibition value has been reported?
Given back: -6.1

Asked: Suppose we examine the compound `O=C(C=C1CCCCC1)c1ccccc1` ; what growth inhibition value has been reported?
Given back: -6.2

Asked: Suppose we examine the compound COc1cc(C(Nc2ccccn2)c2cc3c(cc2O)OCO3)cc(OC)c1O (configuration not stated) ; what growth inhibition value has been reported?
Given back: 30.9

Asked: Suppose we examine the compound CCOC(=O)C1CCc2ccccc2C1=O (configuration not stated) ; what growth inhibition value has been reported?
Given back: -3.35

Asked: Suppose we examine the compound `O=C(c1ccccc1)c1cccnc1` ; what growth inhibition value has been reported?
Given back: -25.1

Asked: Suppose we examine the compound `COS(=O)(=O)C=C(c1ccccc1)c1ccccc1` ; what growth inhibition value has been reported?
Given back: -24.5

Asked: Suppose we examine the compound `CCO/C=C1/N=C(c2ccccc2Cl)OC1=O` ; what growth inhibition value has been reported?
Given back: -30.1

Asked: Suppose we examine the compound COC(=O)C(C)CC(=O)c1ccc2ccc3cccc4ccc1c2c34 (configuration not stated) ; what growth inhibition value has been reported?
Given back: -35.4

Asked: Suppose we examine the compound `BrC1=C(c2ccccc2)SC(Br)=C(c2ccccc2)S1` ; what growth inhibition value has been reported?
Given back: 21.7

Asked: Suppose we examine the compound `Cn1c(=O)c2c(nc(Br)n2CC(=O)CF)n(C)c1=O` ; what growth inhibition value has been reported?
Given back: -24.4
